Test system: barnyardgrass (Echinochloa crus-galli)
ASSAY DETAILS: Test A preemergence, directed soil spray, visual injury rating
Format: in vivo
MEASUREMENT PARAMETERS: 125 g ai/ha, approx. 10 d, 0 = no effect, 100 = complete control
METRIC: Barnyardgrass plant response rating (0 to 100 scale)
One number for each entry.

Example entries begin here.
[
  {
    "COMPOUND": "Cc1ccc(C2Cn3c(C)nnc3C2C(=O)Nc2cccc(F)c2C)cc1C (stereo not shown) [Compound 10]",
    "OBSERVED MEASUREMENT": 50
  },
  {
    "COMPOUND": "Cc1nnc2n1CC(c1ccc(C(F)(F)F)cc1)C2C(=O)Nc1ccccc1C(F)(F)F (stereo not shown) [Compound 6]",
    "OBSERVED MEASUREMENT": 0
  },
  {
    "COMPOUND": "CCc1ccc(C2Cn3c(C)nnc3C2C(=O)Nc2cccc(F)c2C)cc1 (stereo not shown) [Compound 9]",
    "OBSERVED MEASUREMENT": 40
  },
  {
    "COMPOUND": "Cc1ccc(C2Cn3c(C)nnc3C2C(=O)Nc2cccc(F)c2F)cc1C (stereo not shown) [Compound 19]",
    "OBSERVED MEASUREMENT": 50
  },
  {
    "COMPOUND": "Cc1ccc(C2Cn3c(C)nnc3C2C(=O)Nc2ccccc2F)cc1 (stereo not shown) [Compound 27]",
    "OBSERVED MEASUREMENT": 0
  }
]

Below are 5 compounds. Give each one its Barnyardgrass plant response rating (0 to 100 scale).
1. CCc1nnc2n1CC(c1ccc(C(F)(F)F)cc1)C2C(=O)Nc1cccc(F)c1F (stereo not shown) [Compound 8]
2. CCc1ccc(C2Cn3cnnc3C2C(=O)Nc2ccccc2SC)cc1 (stereo not shown) [Compound 25]
3. Cc1nnc2n1CC(c1ccc(Cl)cc1)C2C(=O)Nc1cccc(F)c1F (stereo not shown) [Compound 5]
4. CSc1ccccc1NC(=O)C1c2nnc(C)n2CC1c1ccc(C)c(C)c1 (stereo not shown) [Compound 14]
5. CCc1ccc(C2Cn3c(C)nnc3C2C(=O)Nc2ccccc2SC)cc1 (stereo not shown) [Compound 15]

*A*
1. 30
2. 0
3. 30
4. 0
5. 0
